Target: human CD33 Q24S (human, UniProt P20138 18-364)
Sequence (P20138 18-364 Q24S limits assumed): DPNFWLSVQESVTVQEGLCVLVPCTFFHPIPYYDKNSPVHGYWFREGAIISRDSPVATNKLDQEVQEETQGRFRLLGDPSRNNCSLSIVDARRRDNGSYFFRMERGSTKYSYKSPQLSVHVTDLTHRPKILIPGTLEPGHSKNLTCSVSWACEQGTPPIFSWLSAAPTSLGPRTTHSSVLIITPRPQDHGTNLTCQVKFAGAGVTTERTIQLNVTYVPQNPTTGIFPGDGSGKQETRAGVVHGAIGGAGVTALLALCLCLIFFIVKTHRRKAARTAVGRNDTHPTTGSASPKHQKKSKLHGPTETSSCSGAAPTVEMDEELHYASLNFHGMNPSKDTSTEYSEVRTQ
Experiment: flow cytometry, mutant on cells, IgG
ASSAY_READOUT: Mean % WT Binding

Which Mean % WT Binding reading was recorded for the binder Refmab #2 (antibody, human IgG1, V domains shown, Tested in IgG format; human IgG1 Fc silent (PG-LALA)) VH: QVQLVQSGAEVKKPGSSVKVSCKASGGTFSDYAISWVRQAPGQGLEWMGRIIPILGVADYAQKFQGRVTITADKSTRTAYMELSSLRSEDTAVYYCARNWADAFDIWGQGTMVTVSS VL: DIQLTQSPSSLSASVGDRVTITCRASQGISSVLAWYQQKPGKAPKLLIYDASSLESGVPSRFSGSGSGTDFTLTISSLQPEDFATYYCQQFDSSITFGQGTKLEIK ?
108 % WT binding
